Reference source for all entries: PubChem BioAssay AID1159580

Assay: chemical genetic growth profiling, strain panel (AID 1159580);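 further: tested at 20 µM; growth read once vehicle control cultures reached saturation at 30 °C; 1 = growth at the plate median or of vehicle wells; lower values mean less growth of the strain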
Settings: S. cerevisiae deletion strains, growth OD, locus YHR079C, strain IRE1
Hit rate of the full screen: of about 5,500 compounds, about 2,000 (36%) were called active. Inconclusive results (about 18%) are left out. No stated cut-off is given here; in the data, active means normalized growth mostly below about 0.91 (no sharp cut-off); inconclusive means no clear call, values can overlap the other calls; inactive means mostly above about 0.92. The list shows a part of the results.
Bench note: report the call from Yes for active, No for inactive

Field: outcome | Entry: "COc1c2occc2cc2ccc(=O)oc12"
No

Field: outcome | Entry: "CN(C)c1nc(N(C)C)nc(N(C)C)n1"
No

Field: outcome | Entry: "COc1ccc(-c2cc(NS(=O)(=O)c3cccc(F)c3)n(-c3ccc(Cl)c(Cl)c3)n2)cc1"
No

Field: outcome | Entry: "COc1ccc2[nH]cc(CCNC(C)=O)c2c1"
No

Field: outcome | Entry: C[C@]12CCC3C(CC[C@H]4C[C@@H](O)CC[C@]34C)C1CCC2=O (stereo partly drawn)
No

Field: outcome | Entry: COC(=O)C[C@H]1C(C)(C)[C@@H](OC(C)=O)[C@@H]2CC3C4CC(=O)O[C@@H](c5ccoc5)[C@]4(C)CCC3[C@@]1(C)C2=O (stereo partly drawn)
No

Field: outcome | Entry: "CC(C)N=c1cc2n(-c3ccc(Cl)cc3)c3ccccc3nc-2cc1Nc1ccc(Cl)cc1"
Yes

Field: outcome | Entry: "C[C@H]1C(=O)O[C@@H]2CCN3CC=C(COC(=O)[C@](C)(O)[C@]1(C)O)[C@H]23"
No

Field: outcome | Entry: "CC(=O)Oc1ccc2c(=O)c(Oc3ccc(Cl)cc3)c(C)oc2c1"
No

Field: outcome | Entry: "COc1cc2ccc(=O)oc2c2ccoc12"
No

Field: outcome | Entry: "O=S(=O)(Nc1cc(-c2cccs2)nn1-c1ccc(I)cc1)c1cccc(F)c1"
No

Field: outcome | Entry: CCOC(=O)C(NC(C)=O)(Nc1ccc(F)c(Cl)c1)C(F)(F)F (stereo not drawn)
No

Field: outcome | Entry: "Cc1nc(C(F)(F)F)ccc1-c1nnc(SC(=O)c2ccc(Cl)cc2)o1"
Yes

Field: outcome | Entry: CC(C(=O)O)c1ccc(N2Cc3ccccc3C2=O)cc1 (stereo not drawn)
No

Field: outcome | Entry: "O=S(=O)(Nc1ccc(-n2nc(C(F)(F)F)cc2-c2cccs2)cc1)c1ccc(F)cc1"
No

Field: outcome | Entry: "COC(=O)c1ccc(Oc2c(C(F)(F)F)oc3cc(O)ccc3c2=O)cc1"
No

Field: outcome | Entry: "Nc1ncnc2c1ncn2[C@@H]1O[C@H](CO)[C@@H](O)[C@@H]1O"
No

Field: outcome | Entry: CCOC(=O)C(O)(c1ccc(NC(=O)Nc2ccc(Cl)cc2)cc1)C(F)(F)F (stereo not drawn)
No

Field: outcome | Entry: "C=C(C)c1cc2cc(C(C)=O)c(O)cc2o1"
No

Field: outcome | Entry: "COP(=S)(OC)Oc1cc(Cl)c(Cl)cc1Cl"
Yes

Field: outcome | Entry: "COc1ccc2c(=O)c(CC(=O)O)coc2c1"
No

Field: outcome | Entry: COc1cc(OC)c2c(c1Cl)OC1(C2=O)C(O)=CC(=O)CC1C (stereo not drawn)
No

Field: outcome | Entry: CC1=C2CCC3C(CC[C@]4(C)C(=O)CCC34)[C@@]2(C)CCC1=O (stereo partly drawn)
No

###

Test: chemical genetic growth profiling, strain panel (AID 1159580);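 further: tested at 20 µM; growth read once vehicle control cultures reached saturation at 30 °C; 1 = growth at the plate median or of vehicle wells; lower values mean less growth of the strain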
Conditions: S. cerevisiae deletion strains, growth OD, locus YLR262C, strain YPT6 (second series)
In all, about 5,500 compounds went through this assay and about 2,000 (36%) were called active. About 18% were inconclusive and are not listed. Cut-off read from the data, not from the text of the source: active = normalized growth mostly below about 0.91 (no sharp cut-off); inconclusive = no clear call, values can overlap the other calls; inactive = mostly above about 0.92. This is one part of the list.
Bench note: report the call from active, inactive

Field: outcome | Entry: CCC(=O)O[C@H]1CCC2C3CCc4cc(O)ccc4C3CC[C@@]21C (stereo not given in full)
active

Field: outcome | Entry: C[C@]12CCC3c4ccc(O)cc4CCC3C1CC[C@@H]2OC(=O)CCC1CCCC1 (stereo not given in full)
inactive

Field: outcome | Entry: CC(=O)O[C@H]1CC2CCC3C(CC[C@@]4(C)C3C[C@H]([N+]3(C)CCCCC3)[C@@H]4OC(C)=O)[C@@]2(C)C[C@@H]1[N+]1(C)CCCCC1 (stereo not given in full)
inactive

Field: outcome | Entry: "O=C(O)CCCN1C(=O)c2cccc3cccc(c23)C1=O"
inactive

Field: outcome | Entry: "O=C1c2ccccc2-c2cccc3cccc1c23"
active

###

Kindly supply the reported normalized growth values for the records listed here.
Experiment: chemical genetic growth profiling, strain panel (AID 1159580);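 further: tested at 20 µM; growth read once vehicle control cultures reached saturation at 30 °C; 1 = growth at the plate median or of vehicle wells; lower values mean less growth of the strain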
Conditions: S. cerevisiae deletion strains, growth OD, locus YKR001C, strain vps1, active compounds read low
In all, about 5,500 compounds went through this assay and about 2,000 (36%) were called active. Roughly 18% stayed inconclusive and do not appear here. The list shows a part of the results.
Give your answer as a number; write no unit.

Dear colleague, I am looking for the recorded normalized growth of the following compound: C[C@]12CCC3c4ccc(O)cc4CCC3C1CC[C@@H]2OC(=O)CCC1CCCC1 (stereo partly drawn)
0.973

Dear colleague, I am looking for the recorded normalized growth of the following compound: "CC(C)=CCOc1cc2oc(=O)ccc2cc1O"
0.662

Dear colleague, I am looking for the recorded normalized growth of the following compound: "N#C/C(=C\c1ccc(O)cc1)C(=O)O"
1.01

Dear colleague, I am looking for the recorded normalized growth of the following compound: "Nc1ncnc2nc[nH]c12"
0.319

Dear colleague, I am looking for the recorded normalized growth of the following compound: C[C@]12C=CC(=O)C=C1CCC1C2C(=O)C[C@@]2(C)C1CC[C@]2(O)C(=O)CO (stereo partly drawn)
0.995

Dear colleague, I am looking for the recorded normalized growth of the following compound: "COc1c2c(cc3occ(-c4ccc5c(c4)OCO5)c(=O)c13)OC(C)(C)C=C2"
0.895

Dear colleague, I am looking for the recorded normalized growth of the following compound: CC(C)(O)CC[C@@H](O)[C@](C)(O)C1CC[C@@]2(O)C3=CC(=O)C4C[C@@H](O)[C@@H](O)C[C@]4(C)C3CC[C@]12C (stereo partly drawn)
0.985

Dear colleague, I am looking for the recorded normalized growth of the following compound: "COc1cc2c(cc1-c1coc3c4c(c(OC)cc3c1=O)OC(C)(C)C=C4)OCO2"
0.937

Dear colleague, I am looking for the recorded normalized growth of the following compound: CC1=C2CCC3C(CC[C@]4(C)C(=O)CCC34)[C@@]2(C)CCC1=O (stereo partly drawn)
0.9

Dear colleague, I am looking for the recorded normalized growth of the following compound: "COc1c2occc2cc2ccc(=O)oc12"
0.863

Dear colleague, I am looking for the recorded normalized growth of the following compound: CC(=O)OC1CCC2C3CCc4cc(O)ccc4C3CCC12C (stereo not drawn)
0.977

Dear colleague, I am looking for the recorded normalized growth of the following compound: "CC1(C)C=Cc2c(cc3occ(-c4ccc5c(c4)OCO5)c(=O)c3c2O)O1"
0.988

Dear colleague, I am looking for the recorded normalized growth of the following compound: "Cn1c(=O)[nH]c(=O)c2[nH]cnc21"
0.987

Dear colleague, I am looking for the recorded normalized growth of the following compound: "COc1ccc2[nH]cc(CCNC(C)=O)c2c1"
1.03

Dear colleague, I am looking for the recorded normalized growth of the following compound: "COc1ccc2ccc(=O)oc2c1CC=C(C)C"
0.589

Dear colleague, I am looking for the recorded normalized growth of the following compound: "COc1ccc(Cc2nccc3cc(OC)c(OC)cc23)cc1OC"
0.961

Dear colleague, I am looking for the recorded normalized growth of the following compound: CC(=O)OCC(=O)[C@@]1(O)CCC2C3CCC4=CC(=O)CC[C@]4(C)[C@@]3(F)[C@@H](O)C[C@@]21C (stereo partly drawn)
0.987

Dear colleague, I am looking for the recorded normalized growth of the following compound: O=C1OC(=O)C2C3CCC(O3)C12 (stereo not drawn)
0.95

Dear colleague, I am looking for the recorded normalized growth of the following compound: CC(=O)Oc1ccc2c(c1)CCC1C2CC[C@@]2(C)C1CC[C@@H]2OC(C)=O (stereo partly drawn)
0.98

Dear colleague, I am looking for the recorded normalized growth of the following compound: C[C@]12CCC3C(CC[C@H]4C[C@@H](O)CC[C@]34C)C1CCC2=O (stereo partly drawn)
0.899

Dear colleague, I am looking for the recorded normalized growth of the following compound: "CNC(=O)CSP(=S)(OC)OC"
1.02

Dear colleague, I am looking for the recorded normalized growth of the following compound: "CC(C)=CCC1=C(O)c2ccccc2C(=O)C1=O"
0.788

Dear colleague, I am looking for the recorded normalized growth of the following compound: "COP(=S)(OC)SCn1nnc2ccccc2c1=O"
0.969

Dear colleague, I am looking for the recorded normalized growth of the following compound: C[C@]12CCC3C(CC[C@H]4C[C@@H](Cl)CC[C@]34C)C1CCC2=O (stereo partly drawn)
0.937

Dear colleague, I am looking for the recorded normalized growth of the following compound: C/C=C(\C)C(=O)OC1[C@@H]2C=C3C4CC(=O)O[C@@H](c5ccoc5)[C@]4(C)CCC3[C@@](C)(C2=O)[C@@H](C(O)C(=O)OC)C1(C)C (stereo partly drawn)
1.03

Dear colleague, I am looking for the recorded normalized growth of the following compound: CCC(=O)O[C@H]1CCC2C3CCc4cc(O)ccc4C3CC[C@@]21C (stereo partly drawn)
0.927

Dear colleague, I am looking for the recorded normalized growth of the following compound: CC(=O)O[C@@H]1CC2C(C)(C)C(=O)[C@@H]3O[C@@H]3[C@]2(C)C2CC[C@]3(C)C(=CC(=O)O[C@H]3c3ccoc3)[C@@]21C (stereo partly drawn)
0.971

Dear colleague, I am looking for the recorded normalized growth of the following compound: CCCCC(=O)O[C@H]1CCC2C3CCc4cc(O)ccc4C3CC[C@@]21C (stereo partly drawn)
0.959

Dear colleague, I am looking for the recorded normalized growth of the following compound: "O=c1ccc2cc(O[C@@H]3O[C@H](CO)[C@@H](O)[C@H](O)[C@H]3O)c(O)cc2o1"
0.983

Dear colleague, I am looking for the recorded normalized growth of the following compound: "CC(C)=CCc1c(O)cc2occ(-c3ccc4c(c3)OCO4)c(=O)c2c1O"
1.03

Dear colleague, I am looking for the recorded normalized growth of the following compound: C[C@]12C=CC(=O)C=C1CCC1C2CC[C@]2(C)C(=O)CCC12 (stereo partly drawn)
0.986

Dear colleague, I am looking for the recorded normalized growth of the following compound: "O=c1cc(-c2ccc(O)cc2)oc2cc(O[C@@H]3O[C@H](CO)[C@@H](O)[C@H](O)[C@H]3O[C@@H]3OC[C@](O)(CO)[C@H]3O)cc(O)c12"
0.987

Dear colleague, I am looking for the recorded normalized growth of the following compound: "Fc1ccc(C(c2ccc(F)cc2)N2CCN(C/C=C/c3ccccc3)CC2)cc1"
0.972

Dear colleague, I am looking for the recorded normalized growth of the following compound: "O=c1c(-c2ccc3c(c2)OCO3)coc2cc(O)ccc12"
0.969

Dear colleague, I am looking for the recorded normalized growth of the following compound: "Cc1c(N(C)CS(=O)(=O)O)c(=O)n(-c2ccccc2)n1C"
1.01

Dear colleague, I am looking for the recorded normalized growth of the following compound: "NCCS"
1.01

Dear colleague, I am looking for the recorded normalized growth of the following compound: "Cc1cccc(N(C)C(=S)Oc2ccc3ccccc3c2)c1"
1.01

Dear colleague, I am looking for the recorded normalized growth of the following compound: "CC1(C)S[C@@H]2[C@H](NC(=O)COc3ccccc3)C(=O)N2[C@H]1C(=O)O"
1.03

Dear colleague, I am looking for the recorded normalized growth of the following compound: "Cn1cnc([N+](=O)[O-])c1Sc1ncnc2nc[nH]c12"
0.988

Dear colleague, I am looking for the recorded normalized growth of the following compound: CN1Cc2c(N)cccc2C(c2ccccc2)C1 (stereo not drawn)
1

Dear colleague, I am looking for the recorded normalized growth of the following compound: "CCOc1ccc(Cc2nccc3cc(OCC)c(OCC)cc23)cc1OCC"
0.88

Dear colleague, I am looking for the recorded normalized growth of the following compound: "COC(=O)C1=CO[C@@H](O[C@@H]2O[C@H](CO)[C@@H](O)[C@H](O)[C@H]2O)[C@@H]2[C@@H](C)[C@@H](O)C[C@H]12"
0.999

Dear colleague, I am looking for the recorded normalized growth of the following compound: CC(=O)OC1CCC23C(=O)OC45CCC(C6=CC(=O)OC6)C4(C)CCC2C5CCC3(O)C1 (stereo not drawn)
1.02
